Taken from the supplement of paper PMC10307832.

I'd appreciate it if you could supply relative viability values for the items below.
Tested on: NCI-H1437
Test: relative viability (nuclei count vs DMSO), 5 days (fraction); higher = more cells survive
Settings: first compound 0.8 µM
Number, no unit, nothing else.

Please give measured relative viability of the following entry: CCCCCCCCCCCC1=C(O)C(=O)C=C(O)C1=O [Embelin] + CS(=O)(=O)CCNCc1ccc(-c2ccc3ncnc(Nc4ccc(OCc5cccc(F)c5)c(Cl)c4)c3c2)o1 [Lapatinib] (partner 2 µM) 0.938

Identify measured relative viability corresponding to CCCCCCCCCCCC1=C(O)C(=O)C=C(O)C1=O [Embelin] + CC(C)C[C@H](NC(=O)[C@H](Cc1ccccc1)NC(=O)c1cnccn1)B(O)O [Bortezomib] (partner 0.002 µM) 0.528

Name the recorded relative viability of the molecule listed here: CCCCCCCCCCCC1=C(O)C(=O)C=C(O)C1=O [Embelin] + CS(=O)(=O)N1CCN(Cc2cc3nc(-c4cccc5[nH]ncc45)nc(N4CCOCC4)c3s2)CC1 [Pictilisib] (partner 1 µM) 0.48

Determine from records and report relative viability for CCCCCCCCCCCC1=C(O)C(=O)C=C(O)C1=O [Embelin] + C[C@@H](Oc1cc(-c2cnn(C3CCNCC3)c2)cnc1N)c1c(Cl)ccc(F)c1Cl [Crizotinib] (partner 1 µM) 0.898

Give the reported relative viability for this molecule. CCCCCCCCCCCC1=C(O)C(=O)C=C(O)C1=O [Embelin] + Nc1nc2[nH]cc(CCc3ccc(C(=O)N[C@@H](CCC(=O)O)C(=O)O)cc3)c2c(=O)[nH]1 [Pemetrexed] (partner 0.2 µM) 0.306

Please give measured relative viability of the following entry: CCCCCCCCCCCC1=C(O)C(=O)C=C(O)C1=O [Embelin] + O=C(CCCCCCC(=O)Nc1ccccc1)NO [Vorinostat] (partner 1 µM) 0.943

For the molecule CCCCCCCCCCCC1=C(O)C(=O)C=C(O)C1=O [Embelin] + COc1cccc2cc(-c3nc([C@H]4CC[C@H](C(=O)O)CC4)n4ncnc(N)c34)[nH]c12 [OSI-027] (partner 0.5 µM) , report relative viability. 1.01

###

Test system: HCC-827
Experiment: relative viability (nuclei count vs DMSO), 5 days (fraction); higher = more cells survive
Conditions: first compound 0.8 µM
With a cut-off of 0.9, any relative viability strictly below it is called 1 (yes); any relative viability meeting it or above is called 0 (no).

relative viability under 0.9? Item: CCCCCCCCCCCC1=C(O)C(=O)C=C(O)C1=O [Embelin] + COc1cccc2cc(-c3nc([C@H]4CC[C@H](C(=O)O)CC4)n4ncnc(N)c34)[nH]c12 [OSI-027] (partner 0.5 µM) 1 (yes)

Does the reported relative viability of the following molecule sit strictly below 0.9? CCCCCCCCCCCC1=C(O)C(=O)C=C(O)C1=O [Embelin] + Cc1cc(Nc2cc(N3CCN(C)CC3)nc(Sc3ccc(NC(=O)C4CC4)cc3)n2)n[nH]1 [Tozasertib] (partner 0.1 µM) 1 (yes)

For CCCCCCCCCCCC1=C(O)C(=O)C=C(O)C1=O [Embelin] + COc1cc2c(Oc3ccc(NC(=O)C4(C(=O)Nc5ccc(F)cc5)CC4)cc3F)ccnc2cc1OCCCN1CCOCC1 [Foretinib] (partner 0.25 µM) , is the recorded relative viability below the cut-off of 0.9? 0 (no)

Is it true that relative viability reported for CCCCCCCCCCCC1=C(O)C(=O)C=C(O)C1=O [Embelin] + CC(C)C[C@H](NC(=O)[C@H](Cc1ccccc1)NC(=O)c1cnccn1)B(O)O [Bortezomib] (partner 0.002 µM) is less than 0.9? 0 (no)

# check: relative viability < 0.9 for CCCCCCCCCCCC1=C(O)C(=O)C=C(O)C1=O [Embelin] + Cc1nc(NC(=O)N2CCC[C@H]2C(N)=O)sc1-c1ccnc(C(C)(C)C(F)(F)F)c1 [Alpelisib] (partner 2 µM) 0 (no)

Consider CCCCCCCCCCCC1=C(O)C(=O)C=C(O)C1=O [Embelin] + O=C(c1cc(Cc2n[nH]c(=O)c3ccccc23)ccc1F)N1CCN(C(=O)C2CC2)CC1 [Olaparib] (partner 8 µM) . Does its relative viability lie strictly below 0.9? 1 (yes)

###

System: 201T
Test: relative viability (nuclei count vs DMSO), 5 days (fraction); higher = more cells survive
Settings: first compound 4 µM
Quantity: relative viability
Reply with just the number.

Under 201T, report relative viability for C[C@@H]1CN(CC(=O)Nc2ccc3c(c2)Cc2cccc(-c4cc(=O)cc(N5CCOCC5)o4)c2S3)C[C@H](C)O1 + Cc1cc(Nc2cc(N3CCN(C)CC3)nc(Sc3ccc(NC(=O)C4CC4)cc3)n2)n[nH]1 [Tozasertib] (partner 0.1 µM) 0.922

Provide 201T relative viability reading for COc1cc(N2CCC(C(N)=O)CC2)ccc1Nc1nc(N)c(Cl)c(Nc2ccccc2S(=O)(=O)C(C)C)n1 [HG-5-88-01] + N=C(N)NC(=N)NCCc1ccccc1 [Phenformin] (partner 250 µM) . 0.397

Report relative viability under test system 201T for C[C@@H]1CN(CC(=O)Nc2ccc3c(c2)Cc2cccc(-c4cc(=O)cc(N5CCOCC5)o4)c2S3)C[C@H](C)O1 + Cc1nc(Nc2ncc(C(=O)Nc3c(C)cccc3Cl)s2)cc(N2CCN(CCO)CC2)n1 [Dasatinib] (partner 0.075 µM) . 0.52

Give reported relative viability for COc1cc(N2CCC(C(N)=O)CC2)ccc1Nc1nc(N)c(Cl)c(Nc2ccccc2S(=O)(=O)C(C)C)n1 [HG-5-88-01] + CS(=O)(=O)CCNCc1ccc(-c2ccc3ncnc(Nc4ccc(OCc5cccc(F)c5)c(Cl)c4)c3c2)o1 [Lapatinib] (partner 2 µM) (201T) 1.14

###

Tested on: PC-3 [JPC-3]
Test: relative viability (nuclei count vs DMSO), 5 days (fraction); higher = more cells survive
Conditions: first compound 0.08 µM
Quantity: relative viability

State its relative viability: CCCCCCCCCCCC1=C(O)C(=O)C=C(O)C1=O [Embelin] + CC1(C)CCC(c2ccc(Cl)cc2)=C(CN2CCN(c3ccc(C(=O)NS(=O)(=O)c4ccc(N[C@H](CCN5CCOCC5)CSc5ccccc5)c(S(=O)(=O)C(F)(F)F)c4)cc3)CC2)C1 [Navitoclax] (partner 0.5 µM) 0.82

Give a short answer stating reported relative viability for CCCCCCCCCCCC1=C(O)C(=O)C=C(O)C1=O [Embelin] + C[C@@H](Oc1cc(-c2cnn(C3CCNCC3)c2)cnc1N)c1c(Cl)ccc(F)c1Cl [Crizotinib] (partner 1 µM) . 0.948

Give recorded relative viability. CCCCCCCCCCCC1=C(O)C(=O)C=C(O)C1=O [Embelin] + Cc1cc(Nc2cc(N3CCN(C)CC3)nc(Sc3ccc(NC(=O)C4CC4)cc3)n2)n[nH]1 [Tozasertib] (partner 0.1 µM) 0.843

###

Tested on: NCI-H1651
Assay: relative viability (nuclei count vs DMSO), 5 days (fraction); higher = more cells survive
Conditions: first compound 4 µM
Quantity: relative viability
Write no unit; give the number alone.

Identify measured relative viability obtained with NCI-H1651 for Clc1ccc(Nc2nnc(Cc3ccncc3)c3ccccc23)cc1 [Vatalanib] + Cc1nc(Nc2ncc(C(=O)Nc3c(C)cccc3Cl)s2)cc(N2CCN(CCO)CC2)n1 [Dasatinib] (partner 0.075 µM) . 0.372

Write relative viability of C[C@@H]1CN(CC(=O)Nc2ccc3c(c2)Cc2cccc(-c4cc(=O)cc(N5CCOCC5)o4)c2S3)C[C@H](C)O1 + O=C(c1cc(Cc2n[nH]c(=O)c3ccccc23)ccc1F)N1CCN(C(=O)C2CC2)CC1 [Olaparib] (partner 8 µM) ; system used: NCI-H1651 0.139

Report value: relative viability, system: NCI-H1651, compound: Clc1ccc(Nc2nnc(Cc3ccncc3)c3ccccc23)cc1 [Vatalanib] + CC(C)C[C@H](NC(=O)[C@H](Cc1ccccc1)NC(=O)c1cnccn1)B(O)O [Bortezomib] (partner 0.002 µM) 0.969

Quote NCI-H1651 relative viability for entry COc1cc(N2CCC(C(N)=O)CC2)ccc1Nc1nc(N)c(Cl)c(Nc2ccccc2S(=O)(=O)C(C)C)n1 [HG-5-88-01] + CS(=O)(=O)CCNCc1ccc(-c2ccc3ncnc(Nc4ccc(OCc5cccc(F)c5)c(Cl)c4)c3c2)o1 [Lapatinib] (partner 2 µM) . 0.882

###

Test system: 201T
Assay: relative viability (nuclei count vs DMSO), 5 days (fraction); higher = more cells survive
Conditions: first compound 2.53 µM
Please provide measured relative viability for the entries that follow.
Returns: the value as a bare number; no unit string appended.

Give relative viability for CCCCCCCCCCCC1=C(O)C(=O)C=C(O)C1=O [Embelin] + Nc1ncn([C@H]2C[C@H](O)[C@@H](CO)O2)c(=O)n1 [Decitabine] (partner 2 µM) tested on 201T. 0.853

Give the observed relative viability of CCCCCCCCCCCC1=C(O)C(=O)C=C(O)C1=O [Embelin] + COc1cc2c(Oc3ccc(NC(=O)C4(C(=O)Nc5ccc(F)cc5)CC4)cc3F)ccnc2cc1OCCCN1CCOCC1 [Foretinib] (partner 0.25 µM) for 201T. 1.18

# lookup: 201T relative viability, key = CCCCCCCCCCCC1=C(O)C(=O)C=C(O)C1=O [Embelin] + CCNC(=O)c1noc(-c2cc(C(C)C)c(O)cc2O)c1-c1ccc(CN2CCOCC2)cc1 [Luminespib] (partner 0.01 µM) 1.06
